System: Escherichia coli
Assay: Ability to inhibit the phenylalanine synthesis in Escherichia coli was determined
Type: functional
Settings: read-out: ED50 (the source's name)
measure: log10 EC50 (log10 of the value in µM)

molecule: Cc1nc(O)nc(O)c1/C=C/C(=O)N[C@@H](CO)C[S@+]([O-])CCl
readout-value: 3.30
//
molecule: CCCCCCCCSC[S+]([O-])CC(CO)NC(=O)/C=C/c1c(C)nc(O)nc1O (stereo not given)
readout-value: 0.20
//
molecule: CSC[S@@+]([O-])C[C@H](CO)NC(=O)/C=C/c1c(C)[nH]c(=O)[nH]c1=O
readout-value: 3.30
//
molecule: CSCSC[C@H](CO)NC(=O)/C=C/c1c(C)nc(O)nc1O
readout-value: 3.30
//
molecule: CSC[S+]([O-])CC(CO)NC(=O)/C=C/c1cnc(O)nc1O (stereo not given)
readout-value: 2.78
//
molecule: CCC[S+]([O-])CC(CO)NC(=O)/C=C/c1c(C)nc(O)nc1O (stereo not given)
readout-value: 2.15
//
molecule: Cc1nc(O)nc(O)c1/C=C/C(=O)N[C@@H](CO)C[S@@+]([O-])CCl
readout-value: 2.65
//
molecule: CSCSC[C@@H](CO)NC(=O)/C=C/c1c(C)nc(O)nc1O
readout-value: 3.30
//
molecule: Cc1nc(O)nc(O)c1/C=C/C(=O)NC(CO)CSC[S+](C)[O-] (stereo not given)
readout-value: 3.30
//
molecule: CSC[S@@+]([O-])C[C@@H](CO)NC(=O)/C=C/c1c(C)[nH]c(=O)[nH]c1=O (racemic)
readout-value: 3.30
